test system: Acinetobacter baumannii; test: Bactericidal activity against Acinetobacter baumannii isolate 3 with AMP-AMC-CFZ-CIP-IPM-SXT-TET-TOB resistance phenotype assessed as concentration required for >= 3 log10 CFU/ml reduction in viable bacteria in 20% heat-inactivated human serum after 1.5 hrs by liquid microdilution assay; assay type: functional
# Activity annotations
Give the value in µM but do not write µM after it.

>>> meas_value("H-IIGPVLGLVGSALGGLLKKI-NH2 [BOMBININ H2]")
128
>>> meas_value("H-LLPIVGNLLKSLL-NH2")
192

Please turn your attention to the following entry.
Which Activity is reported for this substance? "H-GIFSKLAGKKLKNLLISG-NH2" 16

###

# Activity annotations
system: Staphylococcus aureus; test: Bactericidal activity against Staphylococcus aureus isolate 1 with AMC-AMP-CIP-ERY-GEN-OXA-RIF resistance phenotype assessed as concentration required for >= 3 log10 CFU/ml reduction in viable bacteria in sodium phosphate buffer at pH 7.4 after 1.5 hrs by liquid microdilution assay; type: functional
Give the value in µM but do not write µM after it.

Solved entries (count: 2):
>>> meas_value("H-FFPVIGRILNGIL-NH2 [TEMPORIN G]")
24
>>> meas_value("H-FLPLIGRVLSGIL-NH2 [TEMPORIN A]")
12

Request: Activity, test system Staphylococcus aureus, entry "H-GIFSKLAGKKLKNLLISG-NH2" 32

# repeat for "H-LLPIVGNLLKSLL-NH2" 48

# repeat for H-IIGPVLGLVGSALGGLLKKI-NH2 [BOMBININ H2] 16

###

# Activity annotations
tested on: Staphylococcus aureus; experiment: Bactericidal activity against Staphylococcus aureus isolate 2 with AMC-AMP-CIP-ERY-GEN-LVX-OXA-RIF-TET resistance phenotype assessed as concentration required for >= 3 log10 CFU/ml reduction in viable bacteria in sodium phosphate buffer at pH 7.4 after 1.5 hrs by liquid microdilution assay; assay type: functional
Note to self: number, then unit, no commentary.

>>> meas_value("H-GIFSKLAGKKLKNLLISG-NH2")
"16 µM"
>>> meas_value("H-FFPVIGRILNGIL-NH2 [TEMPORIN G]")
"12 µM"

Which Activity is reported for this substance? "H-LLPIVGNLLKSLL-NH2" 48 µM

# repeat for H-FLPLIGRVLSGIL-NH2 [TEMPORIN A] 12 µM

# repeat for H-IIGPVLGLVGSALGGLLKKI-NH2 [BOMBININ H2] 16 µM

###

tested on: Staphylococcus aureus; assay: Bactericidal activity against Staphylococcus aureus isolate 3 with AMC-AMP-CIP-ERY-GEN-LVX-OXA resistance phenotype assessed as concentration required for >= 3 log10 CFU/ml reduction in viable bacteria in sodium phosphate buffer at pH 7.4 after 1.5 hrs by liquid microdilution assay; assay type: functional
VALUE_KIND: Activity (µM)
Give the value in µM but do not write µM after it.

Solved entries (count: 2):
>>> meas_value("H-FFPVIGRILNGIL-NH2 [TEMPORIN G]")
12
>>> meas_value("H-GIFSKLAGKKLKNLLISG-NH2")
8

Which Activity is reported for this substance? H-IIGPVLGLVGSALGGLLKKI-NH2 [BOMBININ H2] 8

# repeat for "H-LLPIVGNLLKSLL-NH2" 12

# repeat for H-FLPLIGRVLSGIL-NH2 [TEMPORIN A] 12

The measured values listed here are drawn from ChEMBL document CHEMBL1151458.
